- target_desc: ALDH1A1 (Homo sapiens, UniProt P00352)
- Sequence (P00352 2-501): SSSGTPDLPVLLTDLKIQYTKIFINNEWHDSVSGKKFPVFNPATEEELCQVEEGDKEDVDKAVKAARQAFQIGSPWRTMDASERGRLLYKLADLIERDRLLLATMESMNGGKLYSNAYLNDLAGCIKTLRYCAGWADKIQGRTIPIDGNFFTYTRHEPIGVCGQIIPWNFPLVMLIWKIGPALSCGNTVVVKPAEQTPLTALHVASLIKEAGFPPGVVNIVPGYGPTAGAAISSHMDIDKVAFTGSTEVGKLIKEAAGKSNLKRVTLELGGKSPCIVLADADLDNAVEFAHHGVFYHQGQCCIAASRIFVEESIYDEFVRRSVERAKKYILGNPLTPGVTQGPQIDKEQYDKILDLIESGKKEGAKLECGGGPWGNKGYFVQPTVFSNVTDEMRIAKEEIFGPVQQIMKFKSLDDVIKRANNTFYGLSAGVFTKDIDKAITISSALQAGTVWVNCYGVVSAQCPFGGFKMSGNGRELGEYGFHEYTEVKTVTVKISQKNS
- assay_notes: purified recombinant enzyme, NAD(P)H formation at […] nm with propionaldehyde as substrate
measured_property: pIC50
Reminder that pIC50 means the negative base-10 logarithm of the concentration expressed in mol/L.

Suppose we examine the molecule Cc1c(C(=O)N2CCCCC2)oc2ccc3c(c12)C(=O)CC1(CCCCCC1)O3 ; what pIC50 value has been reported?
6.33
